study_target: T1, human serum albumin (human, UniProt P02768 25-609)
T1 construct: also called HSA
assay_name: SPR (Biacore), ratio of the off rates at the two pH
parameter: Ratio pH 7/pH 5

Reference set, count: 2
INSERT INTO measurements (binder, readout_number) VALUES
  ('4D7 (VHH, Tested as periplasmic extract) VHH: EVQLVESGGGLVQAGDSLRLSCAASGRPFSSYVMGWFRRAPGKEREFVGGINWNSGNTWYSDSVLGRFTISRDNAKNTVDLQMNSLKPEDTAVYYCATASGVGYYRYERQYDYWGQGTQVTVSS', 2.42),
  ('4C8 (VHH, Tested as periplasmic extract) VHH: EVQLVESGGGLVQAGDSLRLSCAASGRTYTPYVMGWFRRAPGKEREFVGAVSWSGTNTWYTDSVKGRFTISRDNAKNTVYLQMNSLKPEDTAVYYCAAGDGVGIYRYEHQYDYWGQGTQVTVSS', 3.35);

1: 4D10 (VHH, Tested as periplasmic extract) VHH: EVQLVESGGGLVQAGDSLRLSCTASERPFMSYVMGWFRRAPGKDREFVGAITWSGINTWYSDSVLGRFTISRDNAKNTVYLQMNSLKPEDTAVYYCAVADGVGLYRYERQYDYWGQGTQVTVSS
2: 4C9 (VHH, Tested as periplasmic extract) VHH: EVQLVESGGGLVQAGDSLRLSCTASERPFSTYVMGWFRRAPGKEREFVGGITWSGINAWYTDSVLGRFTISSDNAKNTVYLQMNSLKPEDTAVYYCAAASGVGRYRYELQYDYWGQGTQVTVSS
3: 4C4 (VHH, Tested as periplasmic extract) VHH: EVQLVESGGGLVQAGDSLRLSCAASGRPFMSYVMGWFRRAPGKEREFVGGINWGSGNTWYTDSVLGRFTISRDNAKNTVYLQMNSLKPEDTAVYYCATAAGVGYYRYERQYDYWGQGTQVTVSS
4: 4B10 (VHH, Tested as periplasmic extract) VHH: EVQLVESGGGLVQAGDSLRLSCAASGRTFSSYAMGWFRQAPGTERQFVARITGKGDSTDYADSVRGRFTISRDNAKNTVYLQMNSLKPEDTAVYYCAADAFNSLLQAGRAEYWGQGTQVTVSS
### Prompt Rank items: key Ratio pH 7/pH 5, increasing. Your answer should be the labels, listed in the requested order.
### Response 4, 3, 2, 1
(4: 0.87, 3: 2.42, 2: 3.88, 1: 6.52)

P: 4B6 (VHH, Tested as periplasmic extract) VHH: KVQLVESGGGLVQVGGSLRLSCVASGRTYGGNAMAWFRQAPGKEREFVAGIDWSSENTRYTDSVKGRFTISRDNAKNTMYLQMNSLKPEDTAVYYCAAGTSWGALASRLENAYSAWGQGTQVTVSS
Q: 4A6 (VHH, Tested as periplasmic extract) VHH: EVQLVESGGGLVQPGGSLRLSCAASPFTLDYYAIGWFRQAPGKEREGVSCSTSHGKTYHADSVKGRFTISRDNAKNTVYLQMNSLKPEDTAVYYCAAGACMGGSGYEADFGSWGQGTQVTVSS
### Prompt Which has the higher Ratio pH 7/pH 5, P or Q ? Please reply using the label of the selected record.
### Response Q
(Q: 5.77, P: 3.23)
